D(4) dopamine receptor (Homo sapiens, UniProt P21917) pKi, compiled from various sources.
Target: D(4) dopamine receptor (Homo sapiens, UniProt P21917)
Sequence (P21917 whole entry): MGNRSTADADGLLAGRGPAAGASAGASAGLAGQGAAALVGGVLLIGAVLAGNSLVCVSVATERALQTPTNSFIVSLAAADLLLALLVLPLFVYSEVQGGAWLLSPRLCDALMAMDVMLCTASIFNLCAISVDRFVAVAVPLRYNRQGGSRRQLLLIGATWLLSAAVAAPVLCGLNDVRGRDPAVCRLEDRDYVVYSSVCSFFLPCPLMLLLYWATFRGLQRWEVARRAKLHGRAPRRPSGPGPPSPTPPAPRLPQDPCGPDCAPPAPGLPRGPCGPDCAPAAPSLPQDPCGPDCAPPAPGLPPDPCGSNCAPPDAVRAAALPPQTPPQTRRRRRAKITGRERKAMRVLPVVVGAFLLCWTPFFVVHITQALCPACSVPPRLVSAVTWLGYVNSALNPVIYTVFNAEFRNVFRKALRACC
Give bare numbers, as −log10 of the molar value.

Some solved entries appear below for comparison.
Fc1ccc(OC[C@@H]2CC[C@@H]3CN(c4ncc(F)cn4)CCN3C2)cc1 | 7.41
COc1ccc(CN2CCC[C@@H](OCc3ccc(F)c(C)c3)C2)cc1F | 5.70
O=C(NCCCCN1CCN(c2cccc(Cl)c2Cl)CC1)c1ccc2c(c1)Cc1ccccc1-2 | 5.44
COc1ccccc1N1CCN(Cc2ccn(-c3ccccc3)c2)CC1 | 9.15

Now consider the entry below.
IN: GET /values?readout=pKi&system=D(4) dopamine receptor (Homo sapiens, UniProt P21917)&item= "O=c1[nH]c2cccc(OCCNCc3ccccc3)c2[nH]1"
OUT: 8.20

---

Biological target: D(4) dopamine receptor (Homo sapiens, UniProt P21917)
Sequence (P21917 whole entry): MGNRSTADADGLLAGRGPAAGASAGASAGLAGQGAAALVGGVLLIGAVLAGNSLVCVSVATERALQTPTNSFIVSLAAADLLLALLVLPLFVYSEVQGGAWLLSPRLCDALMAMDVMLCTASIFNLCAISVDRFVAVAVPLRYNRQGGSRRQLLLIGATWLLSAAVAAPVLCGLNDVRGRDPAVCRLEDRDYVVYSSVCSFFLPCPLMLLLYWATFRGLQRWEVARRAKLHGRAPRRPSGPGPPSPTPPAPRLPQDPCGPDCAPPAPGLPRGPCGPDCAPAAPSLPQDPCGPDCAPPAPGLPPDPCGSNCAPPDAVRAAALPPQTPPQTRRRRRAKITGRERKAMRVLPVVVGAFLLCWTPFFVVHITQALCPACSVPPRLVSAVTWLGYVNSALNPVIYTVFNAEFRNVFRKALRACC
D(4) dopamine receptor (Homo sapiens, UniProt P21917) Ki, compiled from various sources.
Answers are plain numbers, in nM.

Clc1ccc(-c2cc(C3CCN(Cc4ccccc4Cl)CC3)[nH]n2)cc1 | 20
OC1(c2cccc(C(F)(F)F)c2)CCN(Cc2ccn(-c3ccccc3)c2)CC1 | 492
OCc1ccc(N2CCN(CC[C@H](O)c3ccc(Cl)cc3)CC2)cc1Cl | 8.6
Cc1ccccc1CN1CCC(NC(=O)c2ccc3ccccc3c2)CC1 | 26

Now consider the entry below.
IN: Can you share its Ki? I mean this compound: "COc1ccccc1N1CCCN(CCCCNC(=O)c2ccc(N(C)C)cc2)CC1"
OUT: 608

---

D(4) dopamine receptor (Homo sapiens, UniProt P21917) Ki, compiled from various sources.
Numbers only, in nM.

Some solved entries appear below for comparison.
Clc1ccc(CN2CCO[C@H](CCc3ccccc3)C2)cc1 | 36
N#Cc1cnn2ccc(OCCCCN3CCN(c4cccc(Cl)c4Cl)CC3)cc12 | 5.7
Cc1cc(C2CCN(Cc3ccccc3)CC2)[nH]n1 | 470

# return Ki for each item in the list
1. COc1ccccc1N1CCN(CCCNC(=O)c2ccc3ccccc3c2)CC1
2. COc1ccc(Br)cc1C1=N[C@@H](CN2CCN(c3ccccc3)CC2)[C@@H](C)O1 (stereo in doubt)

OUT:
1. 17.8
2. 3300

# return Ki for each item in the list
1. C#Cc1ccc2sc(C(=O)NCCCCN3CCN(c4ccccc4OC)CC3)cc2c1
2. O=C(NCCC(F)CN1CCN(c2cccc(Cl)c2Cl)CC1)c1cc2ccccc2[nH]1 (stereo not given)
3. COc1ccc2c3c(c(=O)oc2c1)CN(Cc1ccc(F)cc1)CC3
4. c1ccc(N2CCN(CCCCc3cc(-c4cccs4)no3)CC2)cc1
5. O=Cc1cccn1C1CCN(Cc2ccccc2)CC1

OUT:
[30.9, 3360, 4.3, 117, 200]

---

D(4) dopamine receptor (Homo sapiens, UniProt P21917) pKi, compiled from various sources.
Give bare numbers, as −log10 of the molar value.

Some solved entries appear below for comparison.
OC1(c2ccc(Cl)cc2)CCCN(Cc2c[nH]c3ccccc23)C1 (stereo not given) | 5.61
OC1(c2ccc(Cl)cc2)CCCN(Cc2c[nH]c3ccccc23)CC1 (stereo not given) | 5.41
COc1ccc(Cn2nnc(C(=O)NCCCCCN3CCN(c4cccc(Cl)c4Cl)CC3)c2C)cc1 | 6.54
COc1cc(NC(=O)C(C)C)c(Cl)cc1C(=O)N[C@H]1CCN(Cc2ccccc2)C1 | 8.52

# return pKi for each item in the list
1. COc1ccccc1N1CCCN(CCCCNC(=O)c2ccc(-c3ccc(F)cc3)s2)CC1
2. Clc1cccc(N2CCN(CCCCOc3ccc4ccnn4c3)CC2)c1Cl
3. COc1ccccc1N1CCN(CCCNC(=O)Nc2ccccc2-c2ccc(C(C)(C)C)cc2)CC1

OUT:
1. 6.39
2. 8.36
3. 7.52

---

Target: D(4) dopamine receptor (Homo sapiens, UniProt P21917)
Sequence (P21917 whole entry): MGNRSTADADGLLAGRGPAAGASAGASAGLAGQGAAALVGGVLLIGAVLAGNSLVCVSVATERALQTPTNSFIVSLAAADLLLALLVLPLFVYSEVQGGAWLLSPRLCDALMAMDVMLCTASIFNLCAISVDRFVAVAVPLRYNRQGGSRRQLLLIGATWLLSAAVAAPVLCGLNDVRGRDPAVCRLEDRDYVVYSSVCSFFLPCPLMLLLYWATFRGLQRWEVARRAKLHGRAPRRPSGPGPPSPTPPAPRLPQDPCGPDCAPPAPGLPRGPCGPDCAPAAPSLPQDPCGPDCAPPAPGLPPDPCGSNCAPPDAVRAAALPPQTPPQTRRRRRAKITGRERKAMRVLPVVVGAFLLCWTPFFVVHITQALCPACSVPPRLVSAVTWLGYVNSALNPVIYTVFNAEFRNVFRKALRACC
D(4) dopamine receptor (Homo sapiens, UniProt P21917) Ki, compiled from various sources.
// thresholds for Ki classes: c1 = under 20 nM, c2 = from 20 nM up to 300 nM, c3 = 300 nM and over

COc1ccccc1N1CCN(CCCCn2cc(-c3ccccc3)nn2)CC1 | c3
Cc1ccc(OCCNCCCOc2ccccc2C)cc1 | c1
CCCN(CCCCNC(=O)/C=C/c1ccc(F)cc1)C1Cc2ccccc2C1 | c1
COc1ccc(CN2CCC[C@H](OCc3ccc(F)c(F)c3)C2)cc1F | c2
O=C(NC1CCN(Cc2cccnc2)CC1)c1ccc2ccccc2c1 | c3
COc1ccc(N(Cc2ccc(C#N)cc2)NC(=O)NCCCN2CCN(c3ccccc3OC)CC2)cc1 | c1
COc1ccccc1N1CCN(CNC(=O)c2ccc(Cl)cc2)CC1 | c1
CCOC(=O)Nc1ccc2c(c1)CC[C@H]1[C@H]2c2cc(O)c(Cl)cc2CCN1C | c3
OC1(c2cccc(Cl)c2)CCN(Cc2c[nH]c3ccccc23)CC1 | c3
CCCN(CCNC(=O)/N=N/c1cc(F)c(F)c(F)c1)C1Cc2ccccc2C1 | c1

Moving on to the next compound.
IN: Could you place "COc1cc2c(cc1O)CN(CCCCNC(=O)c1ccc(Br)cc1)CC2" in its proper category? Many thanks.
OUT: c3

---

Target sequence: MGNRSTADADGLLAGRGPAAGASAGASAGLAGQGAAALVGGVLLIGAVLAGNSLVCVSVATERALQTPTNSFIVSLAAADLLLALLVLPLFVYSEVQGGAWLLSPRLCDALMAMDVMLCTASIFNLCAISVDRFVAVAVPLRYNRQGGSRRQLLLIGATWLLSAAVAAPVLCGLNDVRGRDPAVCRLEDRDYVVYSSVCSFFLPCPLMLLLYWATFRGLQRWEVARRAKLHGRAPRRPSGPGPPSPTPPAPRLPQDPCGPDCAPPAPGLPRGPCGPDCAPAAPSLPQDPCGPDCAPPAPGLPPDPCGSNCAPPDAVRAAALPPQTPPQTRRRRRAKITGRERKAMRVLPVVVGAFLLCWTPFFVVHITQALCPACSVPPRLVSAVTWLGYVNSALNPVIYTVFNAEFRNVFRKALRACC
the protein given by its sequence Ki, compiled from various sources.
Answers without a unit are incomplete; give the number and then its unit.

COc1ccccc1N1CCN(CCN(C(=O)C23CCC(CF)(CC2)C3)c2ccccn2)CC1 | 92 nM
Cc1ccc(C(=O)NCN2CCN(c3ccccc3Cl)CC2)cc1 | 12 nM
C[C@@H]1Cc2ccccc2N1C(=O)CN1CCN(Cc2ccc(F)c(F)c2Cl)CC1 | 12 nM
CCCN(CCCCNC(=O)c1ccc(-c2ccccc2)cc1)C1CCCCC1 | 670 nM
CNc1ccc(C(=O)NCCCCN2CCCN(c3ccccc3OC)CC2)cc1 | 706 nM

# return Ki for each item in the list
1. FC(F)(F)Oc1cccc(CN2CCOC(CCc3ccccc3)C2)c1 (racemic)
2. COc1ccccc1N1CCN(CCCCN2CCCc3cc(-c4cccs4)ccc3C2=O)CC1
3. Cc1ccccc1N1CCN(CCCCc2cc(-c3cccs3)no2)CC1
4. CCC[C@@H]1CN(Cc2ccccc2)C[C@@H]1CNC(=O)c1cc(Cl)c(NC)cc1OC
5. Fc1cc(COC2CCN(Cc3cc4ccc(Cl)cc4[nH]3)CC2)ccc1Cl
6. c1ccc(CCN2CCN(c3cc(-c4ccccc4)[nH]n3)CC2)cc1
7. c1ccc(-c2ncc(CN3CCN(c4ccccn4)CC3)[nH]2)cc1
8. Clc1ccc(N2CCN(Cc3cn4nc(Cl)ccc4n3)CC2)cc1

OUT:
1. 110 nM
2. 2.9 nM
3. 465 nM
4. 200 nM
5. 323 nM
6. 23 nM
7. 8.5 nM
8. 2 nM

# return Ki for each item in the list
1. N#Cc1cc2cc(OCCCCN3CCN(c4cccc(Cl)c4Cl)CC3)ccn2n1
2. C=CC(=O)Nc1cc(OC)c(C(=O)N[C@H]2CCN(Cc3ccccc3)C2)cc1Cl
3. CCCN(CCCCNC(=O)c1ccc(-c2ccccc2)cc1)C1CCn2ncc(Cl)c2C1 (stereo not given)
4. O=C(CCCCCCCCCCC(=O)OC1(c2ccc(Cl)cc2)CCN(CCCC(=O)c2ccc(F)cc2)CC1)OC1(c2ccc(Cl)cc2)CCN(CCCC(=O)c2ccc(F)cc2)CC1
5. FC(F)(F)c1nc2ccc3c(c2[nH]1)OC(CNCc1ccccc1)CC3 (racemic)
6. COc1cc(NC(=O)C2CC2)c(Cl)cc1C(=O)N[C@@H]1CCN(Cc2ccccc2)C1
7. O=C(CCCN1CCN(c2ccc(Cl)cc2)CC1)c1ccc(F)cc1

OUT:
1. 9.3 nM
2. 1.3 nM
3. 190 nM
4. 2200 nM
5. 37 nM
6. 5.6 nM
7. 17 nM
